This collection of values is drawn from paper PMC3430621.

For each entry below, report its Cmax value.
# Method: Pharmacokinetics in conscious freely moving rats after oral administration of BYHWT extract (HPLC-MS/MS of plasma)
# Format: in vivo, Sprague-Dawley rats
# Experimental setup: male, Sprague-Dawley, rat, in vivo, po, 10 g/kg
Give bare numbers, in ng/mL.

Compound | Observed result
CC(=O)O[C@H]1[C@H](O[C@H]2CC[C@]34C[C@]35CC[C@]3(C)[C@@H]([C@@]6(C)CC[C@@H](C(C)(C)O)O6)[C@@H](O)C[C@@]3(C)[C@@H]5C[C@H](O[C@@H]3O[C@H](CO)[C@@H](O)[C@H](O)[C@H]3O)[C@H]4C2(C)C)OC[C@@H](O)[C@@H]1O [Astragaloside II, astragaloside II] | 30

Okay, next one:
Q: Give the measured Cmax of CC(=O)OC1C(O)COC(OC2CCC34CC35CCC3(C)C(C6(C)CCC(C(C)(C)O)O6)C(O)CC3(C)C5CC(OC3OC(CO)C(O)C(O)C3O)C4C2(C)C)C1OC(C)=O (centres unmarked) [Astragaloside I, astragaloside I] .
Result: 55
